The entries below are paired with their reported Binding of serum 1b to looped/cyclic peptides of protein N of SARS-CoV Urbani.
system: antibodies in sera from SARS patients (sera 1a, 1b, 2, 6, 37, 62, London, SARS-yellow, SARS-green); type: binding, human; set-up: unit not given here
# respond with the number and nothing more

KQPTVTLLPAADMDD :: 0.2
KDKKKKTDEAQPLPQ :: 0.1
GQGVPINTNSGPDDQ :: 0.1
LLLDRLNQLESKVSG :: 0.1
QRRPQGLPNNTASWF :: 0.3

// switching to the query sequence
Inquiry: Value lookup for Binding of serum 1b to looped/cyclic peptides of protein N of SARS-CoV Urbani; key = "NKHIDAYKTFPPTEP"
Reply text: 0.1

Values compiled from patent US20070128217A1.
